Species on record: Mus musculus
Test: Analgesic activity in mouse
Format: functional
readout_type: ED50 (mg/kg)

[
  {
    "compound": "CN1CC[C@]2(C)CC1Cc1ccc(O)cc12 (single isomer, unassigned; (+))",
    "readout_type": "ED50",
    "reported_measurement": 22.9
  },
  {
    "compound": "CC[C@]12CCN(C)C(Cc3ccc(O)cc31)C2 (single isomer, unassigned; (-))",
    "readout_type": "ED50",
    "reported_measurement": 0.6
  },
  {
    "compound": "CC[C@H]1C2Cc3ccc(O)cc3[C@]1(CC)CCN2C (single isomer, unassigned; (-))",
    "readout_type": "ED50",
    "reported_measurement": 1.2
  },
  {
    "compound": "CCC[C@]12CCN(C)C(Cc3ccc(O)cc31)[C@@H]2C (single isomer, unassigned; (-))",
    "readout_type": "ED50",
    "reported_measurement": 0.8
  },
  {
    "compound": "CCC[C@]12CCN(C)C(Cc3ccc(O)cc31)[C@@H]2C (single isomer, unassigned; (+))",
    "readout_type": "ED50",
    "reported_measurement": 12.3
  },
  {
    "compound": "CC[C@]12CCN(C)C(Cc3ccc(O)cc31)C2 (single isomer, unassigned; (+))",
    "readout_type": "ED50",
    "reported_measurement": 21.8
  },
  {
    "compound": "CC[C@H]1C2Cc3ccc(O)cc3[C@]1(CC)CCN2C (single isomer, unassigned; (+))",
    "readout_type": "ED50",
    "reported_measurement": 7.5
  },
  {
    "compound": "CN1CC[C@]2(C)CC1Cc1ccc(O)cc12 (single isomer, unassigned; (-))",
    "readout_type": "ED50",
    "reported_measurement": 1.8
  }
]
